assay info: Food effect and relative bioavailability crossover study, Compound (1) vs sodium oxybate
test parameters: human, plasma, po, 7.25 g, plasma Compound (1) AUC0-tlast, Adjusted Geometric Mean, 7.25 g Compound (1) oral, Fasted
endpoint: AUC(0-t) (ng·h/mL)
Numbers only, in ng·h/mL.

# input Please indicate AUC(0-t) recorded for CC(C)[C@H](N)C(=O)OCCCC(=O)O
# output 21000

* * *

assay info: Multiple ascending dose study, plasma pharmacokinetics of Compound (1) and GHB
Type: in vivo, human
test parameters: human, plasma, oral, 4.5 g/day, Cohort 9 (4.5 g/day in a single dose), Dosing Day 4; read-out: Compound (1) plasma AUC0-inf, Mean
Protocol: The plasma concentrations of Compound (1) and GHB in plasma in healthy human subjects were measured using liquid chromatography tandem mass-spectroscopy and evaluated using PHOENIX™ WINNONLIN® version 8.1 (Pharsight Corporation, USA) and MICROSOFT® EXCEL® (Microsoft Corporation, USA). All randomized subjects who received Compound (1), with available pharmacokinetic (PK) data and without relevant deviations interfering with the PK evaluations, were included. […]
endpoint: AUC(0-inf)
A complete answer gives the number and then names the unit.

# input Please indicate AUC(0-inf) recorded for CC(C)[C@H](N)C(=O)OCCCC(=O)O [Compound (1), 4-((L-valyl)oxy)butanoic acid]
# output 12000 ng·h/mL
